Data provenance is PubChem BioAssay AID720524.

Assay: Nrf2 qHTS screen for inhibitors: Nrf2 A549 ARE-Fluc Confirmation Assay for Hit Validation; further: potency means the concentration at half of the fitted maximal effect; nearly all actives have a fitted effect of over 65% in size
Conditions: A549 ARE-firefly luciferase reporter, luminescence; series mostly up to 46.1 µM
Out of some 1,400 compounds screened, about 1,000 (71%) were called active. About 12% were inconclusive and are not listed. The set was probably picked from earlier hits. A selection follows.
assayEndpoint: Potency

Query :: Quick check: Potency of OCCCNc1nccc(-c2cc(Nc3cccc(Cl)c3)ncn2)n1 ?
Result :: 1.46 µM (active)

Query :: Quick one: Potency of CC(=NNC(=S)N1CCCCCC1)c1ccccn1 ?
Result :: 2.59 µM (active)

Query :: Reported Potency for COc1ccc(CCNc2cc(N3CCN(C(=O)c4ccccc4OC)CC3)ccc2[N+](=O)[O-])cc1OC : what is it?
Result :: 4.11 µM (active)

Query :: I would be grateful if you could share the reported Potency for COc1ccc(CCNC(=O)c2ccc(CS(=O)(=O)c3ccc(Br)cc3)o2)cc1OC .
Result :: 14.6 µM (active)

Query :: What value of Potency has been reported for the following molecule? N#CC(C#N)=CN=c1ccn(Cc2ccc(Cl)cc2Cl)cc1
Result :: 4.11 µM (active)

Query :: // query Potency value for entry Cc1ccc(NC(=O)C2CC(=O)N(c3ccc4c(c3)OCCO4)C2)cc1S(=O)(=O)N1CCCCCC1 (stereo not given)
Result :: 20.6 µM (active)

Query :: # Potency lookup, item Cc1c(Cl)cccc1NC(=O)Cn1cc(C(=O)c2cccs2)c2ccccc21
Result :: 5.8 µM (active)

Query :: Bench note: what Potency did COc1ccc(CC(=O)Nc2nc(-c3ccc(F)c(F)c3)cs2)cc1OC show?
Result :: 5.8 µM (active)

Query :: Name the recorded Potency for COc1ccc(C(=O)C[n+]2ccc(N)c(C)c2C)cc1 .
Result :: 6.51 µM (active)
